system: TK-10; experiment: GI50 of drug in presence of dasatinib; higher = less potent; details: treatment: drug + dasatinib (fixed dose, not stated); 5 days
measured-property: GI50 of drug

{"compound": "O=c1[nH]c2ccc(Cl)cc2c(N[C@@H]2CN3CCC2CC3)c1-c1nc2ccccc2[nH]1 [CHIR-124] + Cc1nc(Nc2ncc(C(=O)Nc3c(C)cccc3Cl)s2)cc(N2CCN(CCO)CC2)n1 [dasatinib]", "result-value": "70.6 nM"}
{"compound": "CC(C)c1cnn2c(NCc3ccccc3)cc(NCCCCCCN)nc12.Cl [BS-181 HCl] + Cc1nc(Nc2ncc(C(=O)Nc3c(C)cccc3Cl)s2)cc(N2CCN(CCO)CC2)n1 [dasatinib]", "result-value": "> 10000 nM"}
{"compound": "NC(=O)Nc1cc(-c2cccc(F)c2)sc1C(=O)N[C@H]1CCCNC1 [AZD7762] + Cc1nc(Nc2ncc(C(=O)Nc3c(C)cccc3Cl)s2)cc(N2CCN(CCO)CC2)n1 [dasatinib]", "result-value": "59.6 nM"}
{"compound": "COc1cccc2cc(-c3nc([C@H]4CC[C@H](C(=O)O)CC4)n4ncnc(N)c34)[nH]c12 [OSI-027] + Cc1nc(Nc2ncc(C(=O)Nc3c(C)cccc3Cl)s2)cc(N2CCN(CCO)CC2)n1 [dasatinib]", "result-value": "1100 nM"}
{"compound": "Cc1[nH]c(/C=C2/C(=O)Nc3ccc(S(=O)(=O)N(C)c4cccc(Cl)c4)cc32)c(C)c1C(=O)N1CCN(C)CC1 + Cc1nc(Nc2ncc(C(=O)Nc3c(C)cccc3Cl)s2)cc(N2CCN(CCO)CC2)n1 [dasatinib]", "result-value": "> 10000 nM"}

---

system: 786-O; assay: minimum viability across doses, drug + dasatinib, relative to DMSO (fraction); higher = less growth inhibition; details: treatment: drug + dasatinib (fixed dose, not stated); 5 days

{"compound": "Cc1nc(NC(=O)N2CCC[C@H]2C(N)=O)sc1-c1ccnc(C(C)(C)C(F)(F)F)c1 [BYL719] + Cc1nc(Nc2ncc(C(=O)Nc3c(C)cccc3Cl)s2)cc(N2CCN(CCO)CC2)n1 [dasatinib]", "target-or-test-system": "786-O", "minimum viability across doses": 0.114}
{"compound": "COc1cc(Nc2ncc3c(n2)-c2ccc(Cl)cc2C(c2c(F)cccc2OC)=NC3)ccc1C(=O)O [MLN8237 (Alisertib)] + Cc1nc(Nc2ncc(C(=O)Nc3c(C)cccc3Cl)s2)cc(N2CCN(CCO)CC2)n1 [dasatinib]", "target-or-test-system": "786-O", "minimum viability across doses": 0.145}

---

Items are presented alongside their recorded GI50 of drug.
tested on: A498; assay: GI50 of drug in presence of dasatinib; higher = less potent; conditions: treatment: drug + dasatinib (fixed dose, not stated); 5 days
measured-property: GI50 of drug (µM)

{"compound": "COc1ccc(S(=O)(=O)N(C(C)=O)c2ccccc2/C=C/c2cc[n+]([O-])cc2)cc1 [HMN-214] + Cc1nc(Nc2ncc(C(=O)Nc3c(C)cccc3Cl)s2)cc(N2CCN(CCO)CC2)n1 [dasatinib]", "measured-property": "GI50 of drug", "result-value": 0.387}
{"compound": "CCN1CCN(Cc2ccc(-c3cc4c(N[C@H](C)c5ccccc5)ncnc4[nH]3)cc2)CC1 [AEE788 (NVP-AEE788)] + Cc1nc(Nc2ncc(C(=O)Nc3c(C)cccc3Cl)s2)cc(N2CCN(CCO)CC2)n1 [dasatinib]", "measured-property": "GI50 of drug", "result-value": 5.83}
{"compound": "C=CC(=O)Nc1cccc(Sc2nc(Nc3ccc(N4CCN(C)CC4)cc3)ncc2Cl)c1 [WZ8040] + Cc1nc(Nc2ncc(C(=O)Nc3c(C)cccc3Cl)s2)cc(N2CCN(CCO)CC2)n1 [dasatinib]", "measured-property": "GI50 of drug", "result-value": 8.3}
{"compound": "NC(=O)Nc1cc(-c2cccc(F)c2)sc1C(=O)N[C@H]1CCCNC1 [AZD7762] + Cc1nc(Nc2ncc(C(=O)Nc3c(C)cccc3Cl)s2)cc(N2CCN(CCO)CC2)n1 [dasatinib]", "measured-property": "GI50 of drug", "result-value": 0.261}
